system: BRAF (Homo sapiens)
Construct: purchased Eurofins Genomics KK; (BRAF); Thermo Fisher Scientific Inc. (MEK1)
method: BRAF-inhibiting activity, time-resolved fluorescence-fluorescence resonance energy transfer assay
Assay type: biochemical
protocol_conditions: read-out: BRAF IC50; Table 3
observation_type: IC50 (nM)
Numbers only, in nM.

{"compound": "CNS(=O)(=O)Nc1nccc(Cc2cc(C(N)=O)c(Nc3ccc(I)cc3C)c(F)c2F)c1F [Compound C-5]", "IC50 (nM)": 3}
{"compound": "CC(C)CS(=O)(=O)Nc1cccc(Cc2cc(C(N)=O)c(Nc3ccc(I)cc3F)c(F)c2F)c1F [Compound E-17]", "IC50 (nM)": 6}
{"compound": "NC(=O)c1cc(Cc2cccc(NS(N)(=O)=O)c2F)c(F)c(F)c1Nc1ccc(I)cc1F [Compound E-8]", "IC50 (nM)": 2}
{"compound": "CC(C)S(=O)(=O)Nc1cccc(Cc2cc(C(N)=O)c(Nc3ccc(I)cc3F)c(F)c2F)c1F [Compound E-24]", "IC50 (nM)": 20}
{"compound": "CCS(=O)(=O)Nc1nccc(Cc2cc(C(N)=O)c(Nc3ccc(I)cc3F)c(F)c2F)c1F [Compound A-38]", "IC50 (nM)": 3}
{"compound": "CNS(=O)(=O)Nc1nccc(Cc2cc(C(=O)NOC)c(Nc3ccc(C4CC4)cc3F)c(F)c2F)c1F [Compound G-2]", "IC50 (nM)": 3}
{"compound": "NC(=O)c1cc(Cc2cccc(NS(=O)(=O)NC[C@H]3CCCO3)c2F)c(F)c(F)c1Nc1ccc(I)cc1F [Compound D-3]", "IC50 (nM)": 1}
{"compound": "CCCNS(=O)(=O)Nc1nccc(Cc2cc(C(N)=O)c(Nc3ccc(I)cc3F)c(F)c2F)c1F [Compound A-41]", "IC50 (nM)": 7}
{"compound": "CNS(=O)(=O)Nc1nccc(Cc2c(C)c3ccc(Oc4ncccn4)cc3oc2=O)c1F [Ref-5, reference compound]", "IC50 (nM)": 11}
{"compound": "CONC(=O)c1cc(Cc2ccnc(NS(=O)(=O)NC3(C)CCC3)c2F)c(F)c(F)c1Nc1ccc(C2CC2)cc1F [Compound G-6]", "IC50 (nM)": 15}

# map each compound to its IC50
1. Cc1c(Nc2ccc(I)cc2F)c(C(N)=O)cn(Cc2ccnc(NS(=O)(=O)NC3(C)CCC3)c2F)c1=O [Compound P-3]
2. COCCNS(=O)(=O)Nc1cccc(Cc2cc(C(N)=O)c(Nc3ccc(I)cc3F)c(F)c2F)c1F [Compound D-1]
3. CC(C)(C)ONC(=O)c1cc(Cc2cccc(NS(=O)(=O)C3(C)CC3)c2F)c(F)c(F)c1Nc1ccc(I)cc1F [Compound E-6]
4. CS(=O)(=O)Nc1nccc(Cc2cc(C(=O)NC3CC3)c(Nc3ccc(I)cc3F)c(F)c2F)c1F [Compound B-14]
5. CONC(=O)c1cc(Cc2ccnc(NS(C)(=O)=O)c2F)c(F)c(F)c1Nc1ccc(I)cc1F [Compound B-15]
6. CC(C)(C)NS(=O)(=O)Nc1nccc(Cc2cc(C(N)=O)c(Nc3ccc(I)cc3F)c(F)c2F)c1F [Compound A-37]

Reply:
[10, 1, 17, 13, 4, 7]

Look at each compound and report its IC50.
1. O=C(NC1CC1)c1cc(Cc2ccnc(NS(=O)(=O)NCCF)c2F)c(F)c(F)c1Nc1ccc(I)cc1F [Compound A-6]
2. CNS(=O)(=O)Nc1nccc(Cc2cc(C(N)=O)c(Nc3ccc(I)cc3F)n3cncc23)c1F [Compound M-1]
3. CNS(=O)(=O)Nc1nccc(Cc2cc(C(=O)NOC)c(Nc3ccc(I)cc3F)n(C)c2=O)c1F [Compound J-8]
4. NC(=O)c1cc(Cc2ccnc(NS(=O)(=O)NC3CC3)c2F)c(F)cc1Nc1ccc(I)cc1F [Compound I-3]

Reply:
1. 10
2. 4
3. 2
4. 2

I would be grateful if you could provide IC50 for each of the following entries.
1. NC(=O)c1cc(Cc2cccc(NS(=O)(=O)C3CC3)c2F)c(F)c(F)c1Nc1ccc(I)cc1F [Compound E-22]
2. COCC1(S(=O)(=O)Nc2cccc(Cc3cc(C(N)=O)c(Nc4ccc(I)cc4F)c(F)c3F)c2F)CC1 [Compound E-19]
3. CNS(=O)(=O)Nc1nccc(Cc2cc(C(N)=O)c(Nc3ccc(I)cc3F)n(C)c2=O)c1F [Compound J-1]

Reply:
1. 4
2. 34
3. 4

Batch request: IC50 for each of the following compounds.
1. CCS(=O)(=O)Nc1cccc(Cc2cc(C(=O)NOC)c(Nc3ccc(I)cc3F)c(F)c2F)c1F [Compound E-1]
2. CNS(=O)(=O)Nc1nccc(Cc2cc(C(=O)NOC(C)(C)C)c(Nc3ccc(I)cc3F)c(F)c2F)c1F [Compound A-8]
3. CCS(=O)(=O)Nc1nccc(Cc2cc(C(=O)NC3CC3)c(Nc3ccc(I)cc3F)c(F)c2F)c1F [Compound A-39]
4. CC(C)(C)ONC(=O)c1cc(Cc2cccc(NS(=O)(=O)NC3CC3)c2F)c(F)c(F)c1Nc1ccc(I)cc1Cl [Compound E-12]
5. NC(=O)c1cc(Cc2cccc(NS(=O)(=O)C3CCOCC3)c2F)c(F)c(F)c1Nc1ccc(I)cc1F [Compound E-23]
6. COCCNS(=O)(=O)Nc1nccc(Cc2cc(C(=O)NOC)c(Nc3ccc(I)cc3F)n(C)c2=O)c1F [Compound J-9]

Reply:
1: 12; 2: 4; 3: 14; 4: 17; 5: 6; 6: 3

----------
Answer each item with its documented microsomal CLint at 0.99 µM.
method: Human liver microsome stability
Assay type: in vitro ADME
protocol_conditions: human liver microsomes, pH 7.4
One number for each entry, in µL/min/mg.

Study these solved cases before continuing.
{"molecule": "CNS(=O)(=O)Nc1nccc(Oc2cc(C(N)=O)c(Nc3ccc(I)cc3F)c(F)c2F)c1F [Compound H-4]", "observation_type": "microsomal CLint at 0.99 µM", "test_value": 11}
{"molecule": "CCNS(=O)(=O)Nc1nccc(Cc2cc(C(=O)NC3CC3)c(Nc3ccc(I)cc3F)c(F)c2F)c1F [Compound A-4]", "observation_type": "microsomal CLint at 0.99 µM", "test_value": 21}
{"molecule": "CCS(=O)(=O)Nc1cccc(Cc2cc(C(N)=O)c(Nc3ccc(I)cc3F)c(F)c2F)c1F [Compound D-4]", "observation_type": "microsomal CLint at 0.99 µM", "test_value": 9}
{"molecule": "CCCS(=O)(=O)Nc1nccc(Cc2cc(C(N)=O)c(Nc3ccc(I)cc3F)c(F)c2F)c1F [Compound B-8]", "observation_type": "microsomal CLint at 0.99 µM", "test_value": 24}
{"molecule": "Cn1c(Nc2ccc(C3CC3)cc2F)c(C(N)=O)cc(Cc2ccnc(NS(=O)(=O)NC3CC3)c2F)c1=O [Compound J-4]", "observation_type": "microsomal CLint at 0.99 µM", "test_value": 67}

Below are 2 molecules. Give each one its microsomal CLint at 0.99 µM.
1. CCNS(=O)(=O)Nc1nccc(Cc2cc(C(N)=O)c(Nc3ccc(I)cc3F)cc2F)c1F [Compound I-2]
2. CC(O)CNS(=O)(=O)Nc1nccc(Cc2cc(C(N)=O)c(Nc3ccc(I)cc3F)c(F)c2F)c1F (racemic) [Compound A-17]

Reply:
1: 12; 2: 6

----------
system: BRAF (Homo sapiens, UniProt P15056)
Construct: purchased Eurofins Genomics KK; (BRAF); Thermo Fisher Scientific Inc. (MEK1)
Sequence (P15056 417-766 limits assumed): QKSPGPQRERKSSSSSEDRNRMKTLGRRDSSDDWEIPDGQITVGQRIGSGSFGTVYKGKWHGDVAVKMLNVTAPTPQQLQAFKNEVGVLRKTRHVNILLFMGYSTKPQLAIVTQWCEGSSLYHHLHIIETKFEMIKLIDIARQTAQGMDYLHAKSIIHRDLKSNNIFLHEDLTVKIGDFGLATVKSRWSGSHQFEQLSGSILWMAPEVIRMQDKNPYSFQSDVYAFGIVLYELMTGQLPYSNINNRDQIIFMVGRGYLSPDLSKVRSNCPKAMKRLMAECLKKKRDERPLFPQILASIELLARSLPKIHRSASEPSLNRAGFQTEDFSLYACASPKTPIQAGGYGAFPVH
method: BRAF-inhibiting activity, time-resolved fluorescence-fluorescence resonance energy transfer assay
Format: biochemical
protocol_conditions: read-out: BRAF IC50; Table 3
IC50 vs 6 nM: less than gives 1 (yes); not less than gives 0 (no).

# count of solved cases: 2
{"smiles_representation": "CNS(=O)(=O)Nc1nccc(Cc2cc(C(=O)NC3CC3)c(Nc3ccc(C4CC4)cc3F)c(F)c2F)c1F", "system": "BRAF (Homo sapiens, UniProt P15056)", "classification": "0 (no)"}
{"smiles_representation": "CCS(=O)(=O)Nc1cccc(Cc2cc(C(N)=O)c(Nc3ccc(I)cc3F)c(F)c2F)c1", "system": "BRAF (Homo sapiens, UniProt P15056)", "classification": "1 (yes)"}

Ask: Confirm or reject: IC50 of "COCC(C)(C)NS(=O)(=O)Nc1cccc(Cc2cc(C(N)=O)c(Nc3ccc(I)cc3F)c(F)c2F)c1F" lies strictly below 6 nM
Reply: 1 (yes)

Ask: Determine whether this compound shows IC50 lower than 6 nM (ties excluded): "CNS(=O)(=O)Nc1cccc(Cc2cc(C(=O)NC3CC3)c(Nc3ccc(I)cc3F)n(C)c2=O)c1F"
Reply: 0 (no)

Ask: For this compound, is IC50 lower than 6 nM? "CCS(=O)(=O)Nc1cccc(Cc2cc(C(N)=O)c(Nc3ccc(I)cc3Cl)c(F)c2F)c1F"
Reply: 1 (yes)
